These data points were gathered from PubChem BioAssay (NCI).

Test system: HT29 colon
Assay: NCI-60 one-dose screen, 48 h
Settings: 10 µM unless noted
Compounds without any hit were thinned out: in the full panel of roughly 83,000, 20% have a hit. Calls of active or inactive are those of the source. The calls were made as follows: active = growth percent below 10; inactive = the rest.
Lab note: assign the record to one of active, inactive

What is the recorded call for this compound in the test? C[C@@H]1O[C@@H](O[C@@H]2C[C@H](c3ccc4c(c3O)C(=O)C3=C(C4=O)[C@@]4(O)C(=O)C[C@](C)(O)C[C@@]4(O)C=C3)O[C@H](C)[C@H]2O)C[C@H](O)[C@@H]1O inactive

Moving on to the next compound: CC12CCC(/C(=C/NNc3ccc([N+](=O)[O-])cc3[N+](=O)[O-])C1=O)C2(C)C (configuration not stated) inactive

Moving on to the next compound: COc1ccc2c(c1)c(-c1nonc1-c1cn(C)c3ccc(OC)cc13)cn2C inactive

Moving on to the next compound: O=C1c2cccnc2C(=O)c2c1c(C(=O)OCCCN1CCCCC1)c1ccccn21 active

Moving on to the next compound: COc1cccc(Nc2ccnc3[nH]c4ccc([N+](=O)[O-])cc4c23)c1 inactive

Moving on to the next compound: CC(C)c1ccc(C(=O)Nc2sc3cc(O)ccc3c2C#N)cc1 inactive

Moving on to the next compound: CCOC(=O)N1CCN(S(=O)(=O)c2oc(-c3ccc(Cl)cc3)nc2C#N)CC1 inactive

Moving on to the next compound: CN1C(=O)N(C)C2C1NC(=S)N2/N=C/C=C/c1ccccc1[N+](=O)[O-] (configuration not stated) active

Moving on to the next compound: COc1ccc(-c2cn(-c3ccc(Cl)cc3)c(SCC(=O)c3ccc([N+](=O)[O-])cc3)n2)cc1 inactive

Moving on to the next compound: CC(C)c1ccc(-n2c(=S)[nH]c3sc4c(c3c2=O)CCC(=O)C4)cc1 inactive

Moving on to the next compound: COc1cc(Nc2ncccc2NC(=O)c2cn(Cc3cccc(Oc4ccccc4)c3)nn2)cc(OC)c1 inactive

Moving on to the next compound: O=c1oc2c(cnc3ccccc32)cc1-c1cccs1 inactive

Moving on to the next compound: COc1cc(-c2cc(-c3ccc(Nc4ncnc5cc(Cl)ccc45)cc3)nc(N3CCN(C)CC3)n2)cc(OC)c1OC inactive

Moving on to the next compound: CCN(CC)CCN(CCN(CC)CC)c1ccccc1 inactive

Moving on to the next compound: O=C1/C(=C/c2cccc([N+](=O)[O-])c2)COc2ccc(O)cc21 active

Moving on to the next compound: CC(/C=C1\SC(=S)N(CC(=O)NC(Cc2c[nH]c3ccccc23)C(=O)O)C1=O)=C\c1ccccc1 (configuration not stated) inactive

Moving on to the next compound: COc1ccc(OC)c(Nc2nnc(-c3ccc(Cl)cc3)o2)c1 inactive

###

Test system: SR leukemia
Assay: NCI-60 one-dose screen, 48 h
Conditions: 10 µM unless noted
Compounds without any hit were thinned out: in the full panel of roughly 83,000, 20% have a hit. The source made the active and inactive calls. How the source made its calls: active means growth percent below 10; inactive means the rest.
Lab note: assign the record to one of active, inactive

What is the recorded call for this compound in the test? CCOC(=O)c1c(C)nc2ccccc2c1/C=C/c1ccc(OC)cc1 inactive

Moving on to the next compound: COc1ccc(-c2cc(-c3ccc(OC)cc3)nc(NCCCNc3ccnc4cc(Cl)ccc34)n2)cc1 active

Moving on to the next compound: O=C1Nc2ccccc2/C1=C/c1cn(C[C@@H](O)Cn2c3ccccc3c(=O)c3ccccc32)c2ccccc12 inactive

Moving on to the next compound: C(/C=C/c1ccccc1)=Nc1ccc(CCc2ccc(N=C/C=C/c3ccccc3)cc2)cc1 inactive

Moving on to the next compound: O=C(CN1CCN(c2cc3c(cc2F)c(=O)c(C(=O)O)cn3C2CC2)CC1)N/N=C/c1ccncc1 inactive

Moving on to the next compound: COc1cc(/C=C\c2cc(/C=C\c3ccc(O)c(OC)c3)n(C(=O)CNc3ccc(Cl)cc3)n2)ccc1O active

Moving on to the next compound: CCCCn1sc(=O)n(Cc2ccc(CNC(=O)OCc3ccc4c(Br)cc(Br)c(O)c4n3)cc2)c1=O active

Moving on to the next compound: CCN1C(=O)N(CC)C2C1NN=c1s/c(=C\c3cc4ccccc4[nH]3)c(=O)n12 (stereo not given) inactive

Moving on to the next compound: C=C1C(=O)O[C@H]2[C@H]1CC/C(COC(=O)/C=C\C(=O)NCc1ccc(Cn3c(=O)sn(-c4ccccc4)c3=O)cc1)=C\CC[C@@]1(C)O[C@@H]21 inactive

Moving on to the next compound: CCN(CC)S(=O)(=O)c1ccc(S(=O)(=O)N2CCC[C@@H](C(=O)N3CCN(C(=O)OC(C)(C)C)CC3)C2)cc1 inactive
